// provenance: the supplement of paper PMC10567573

B1: SNAP91 (parent)
chain: FATASAAVPVSTSKPSSDLLDLQP

# Variants of: B1
# protocolDetails: protein stability index of a GFP-peptide fusion (GPS, HEK-293T) (PSI 1-6); higher = more stable;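 note: lentivirally expressed fusions sorted by FACS into six bins by GFP to DsRed ratio, PSI derived from sequencing read proportions per bin multiplied by bin number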
# measurementConditions: c terminus: a fixed tail appended
metric: protein stability index

* S5E | 4.02
* V10H | 4.01
* S16M | 3.43
* S5N | 3.66
* L20I | 3.62
* T3S | 3.39
* A6E | 4.31
* D21K | 3.41
* P15I | 3.52
* P15F | 2.54
* K14P | 4.15
